Entries and their measured TGI follow.
system: MDA-MB-231 breast; experiment: NCI tumour cell line growth inhibition, 48 h

Please review the following examples before continuing.
chemical smiles	reported measurement
COC(=O)C1=C(C)N2[C@H](C(=O)O)CS[C@@]2(C)[C@H](C(=O)OC)[C@H]1c1cccc([N+](=O)[O-])c1	> 100 µM
O=C1c2c(c3c4ccc(Br)cc4oc3c3[nH]c4ccccc4c23)C(=O)N1O	> 100 µM

Let us examine a further case.
Item "COc1ccc(CN2C(=O)C(=O)N(C)C2=O)c2ccccc12" with MDA-MB-231 breast - TGI? > 10 µM

###

tested on: 786-0 renal; test: NCI tumour cell line growth inhibition, 48 h
quantity measured: TGI

molecule	target desc	reported measurement
C[C@H]1CCC/C=C/[C@@H]2C[C@H](N)C[C@H]2[C@H](O)/C=C/C(=O)O1	786-0 renal	> 100 µM

Value lookup for TGI; key = "O=c1c(Cc2ccccc2)c(-c2ccccc2)[nH]n1C1=NCCN1" > 100 µM

Value lookup for TGI; key = "Cc1c(-c2nc(N)nc(C3CC3)c2C)nc(N)nc1C1CC1" > 100 µM

Value lookup for TGI; key = "C(=N/Nc1ccc(-c2nc3ccccc3[nH]2)cc1)/c1c(-c2ccccc2)[nH]c2ccccc12" > 100 µM

Value lookup for TGI; key = "COc1ccc(NC2=C(Br)C(=O)C(C)=C(C)C2=O)cc1" 29.9 µM

Value lookup for TGI; key = "Cc1ncc([N+](=O)[O-])n1CCNC(=O)CCCCn1ccnc1[N+](=O)[O-]" > 100 µM

Value lookup for TGI; key = "CCCSc1cc(Cl)nc(N)n1" > 100 µM

Value lookup for TGI; key = COC1OC2COC(C)(C)OC2C2OC(C)(C)OC12 (stereo not drawn) 52 µM

Value lookup for TGI; key = COP(=O)(CC(=O)C1OC(OCc2ccccc2)C(OCc2ccccc2)C(OCc2ccccc2)C1OCc1ccccc1)OC (stereo not drawn) > 100 µM

Value lookup for TGI; key = "CCCCCC(=O)Oc1ccc(/C(=C(\C)c2ccc(OC)cc2)c2ccc(OCCN3CCCCC3)cc2)cc1" 5.61 µM

Value lookup for TGI; key = "O=C1c2ccccc2-c2cccc3ccc(Cc4ccccc4)c1c23" > 100 µM

Value lookup for TGI; key = "CC1=NC(C)(C)N(O)C1(C)C" > 100 µM

Value lookup for TGI; key = C=C1CC2C(=O)N(c3ccccc3)C(=O)C2CC1n1[nH]c(=O)n(Cc2ccccc2)c1=O (stereo not drawn) > 100 µM

Value lookup for TGI; key = "O=C1c2ccccc2-c2c1c1ccccc1c(=O)n2CCNCCCNCCn1c2c(c3ccccc3c1=O)C(=O)c1ccccc1-2" 0.326 µM

Value lookup for TGI; key = "COc1cc2c(cc1OCCCOc1cc3c(cc1OC)C(=O)N1CCC[C@H]1CN3)N=C[C@@H]1CCCN1C2=O" 2.18 µM

Value lookup for TGI; key = "COc1cc2nc(-c3c(F)cccc3F)n(Cc3c(F)cccc3F)c2cc1Cc1c(F)cccc1F" > 100 µM

Value lookup for TGI; key = COC(=O)C(CCCCNC(=O)CNC(=O)OCc1ccccc1)NC(=O)C(CCCCNC(=O)CNC(=O)OCc1ccccc1)NC(=O)OCc1ccccc1 (stereo not drawn) > 100 µM

Value lookup for TGI; key = CC/C=C\C/C=C\C/C=C\CCCCCCCC(=O)OC(COC(=O)CCCCCCCCCCCCCCCCC)COC1OC(CO)C(O)C(O)C1O (stereo not drawn) > 25 µM

###

tested on: U251 CNS; assay: NCI tumour cell line growth inhibition, 48 h
Entries and their measured TGI follow.

Please review the following examples before continuing.
compound	TGI
CC(O)(C(=O)N(O)c1ccc(Cl)cc1)c1ccc(Cl)cc1 (stereo not drawn)	64.4 µM
CC1OC(n2cc(F)c(=O)[nH]c2=O)C(O[Si](C)(C)C(C)(C)C)C1O[Si](C)(C)C(C)(C)C (stereo not drawn)	26.9 µM

Let us examine a further case.
Value lookup for TGI; key = "COc1ccc(CCCCl)c(C2=NCCc3ccccc32)c1" > 100 µM

###

test system: 786-0 renal; assay: NCI tumour cell line growth inhibition, 48 h
quantity measured: TGI

molecule	TGI
O=C(NCCCNCCCCNCCCNC(=O)C(F)(F)F)C(F)(F)F	> 100 µM

Item COc1ccc(C(=O)C(C(=O)CCC(=O)Nc2cccc(C(F)(F)F)c2)c2ccccc2)cc1 (stereo not drawn) with 786-0 renal - TGI? > 100 µM

Item Cc1cn(C2CC(OC(c3ccccc3)(c3ccccc3)c3ccccc3)C(COC(c3ccccc3)(c3ccccc3)c3ccccc3)O2)c(=O)[nH]c1=O (stereo not drawn) with 786-0 renal - TGI? > 100 µM

###

system: NCI-H522 lung; experiment: NCI tumour cell line growth inhibition, 48 h
quantity measured: TGI (µM)
Record the value in µM, omitting the unit from your answer.

compound	reported measurement
C=C(C)[C@@H]1CC[C@@]2(C(=O)O)CC[C@]3(C)C(CCC4[C@@]5(C)CCC(OS(=O)(=O)c6ccccc6)C(C)(C)C5CC[C@]43C)C12 (stereo not given in full)	13.2
O=[N+]([O-])c1ccc2nc3c(nc2c1)-c1c2ccccc2cc2cccc-3c12	7.85
Nc1nc(Nc2ccc(OCc3cccc(F)c3)cc2)c2c(n1)[nH]c1ccc(O)cc12	4.67

Let us examine a further case.
Value lookup for TGI; key = C=C1CC=CC(C)(C)C1C/C=C(\C)C(O)CBr (stereo not given) 23.2

###

tested on: CAKI-1 renal; assay: NCI tumour cell line growth inhibition, 48 h
Entries and their measured TGI follow.

Please review the following examples before continuing.
molecule	quantity measured	reported measurement
CCOP(=O)(OCC)c1cc(-c2ccccc2)ccc1N	TGI	> 100 µM
COc1ccc(C(=O)C(C(=O)CCC(=O)Nc2cccc(C(F)(F)F)c2)c2ccccc2)cc1 (configuration not stated)	TGI	> 100 µM
CS(=O)(=O)Nc1ccc(-c2ccc3c(NC(=O)C4CC4)n[nH]c3c2)cc1	TGI	> 25 µM
COc1ccc(N2C(=O)C3c4[nH]c5ccccc5c4C4C(C)CCCC4C3C2=O)cc1 (configuration not stated)	TGI	> 100 µM

Value lookup for TGI; key = "CN(C)CCNC(=O)Nc1c(C#N)[n+]([O-])c2cc(Cl)c(Cl)cc2[n+]1[O-]" > 100 µM

Value lookup for TGI; key = "CC1(C)CCc2cc3c(cc2O1)OCCC3=O" > 100 µM

Value lookup for TGI; key = "COc1ccc(CN2C(=O)C(=O)N(C)C2=O)c2ccccc12" > 10 µM

###

test system: HS 578T breast; test: NCI tumour cell line growth inhibition, 48 h
Entries and their measured TGI follow.

Please review the following examples before continuing.
compound	target desc	TGI
CCCNCc1cc(C)cc2c1nc(N1CCNCC1)n2Cc1cc(C)c(F)c(C)c1	HS 578T breast	11.6 µM
C[C@H]1CCC/C=C/[C@@H]2C[C@H](N)C[C@H]2[C@H](O)/C=C/C(=O)O1	HS 578T breast	> 100 µM
NS(=O)(=O)c1nnc(NSc2ccc([N+](=O)[O-])cc2)s1	HS 578T breast	> 100 µM
COc1ccc(N2C(=O)C3c4[nH]c5ccccc5c4C4C(C)CCCC4C3C2=O)cc1 (stereo unspecified)	HS 578T breast	96 µM
COc1ccc2c(-c3cc4ccccc4o3)cc(=O)oc2c1	HS 578T breast	43.6 µM

Value lookup for TGI; key = "O=c1c(Cc2ccccc2)c(-c2ccccc2)[nH]n1C1=NCCN1" > 100 µM

Value lookup for TGI; key = "C(=N/Nc1ccc(-c2nc3ccccc3[nH]2)cc1)/c1c(-c2ccccc2)[nH]c2ccccc12" 0.889 µM

Value lookup for TGI; key = "Cc1ccsc1C(=S)Nc1ccc(Cl)c(C(=O)OC(C(C)C)C(C)C)c1" > 100 µM

Value lookup for TGI; key = "Nc1n[nH]c2ccccc12" > 100 µM

Value lookup for TGI; key = COc1cc(-c2c3c(cc4c2OCO4)[C@@H](Nc2ccc4c(c2)Cc2cc(N[C@@H]5c6cc7c(cc6C(c6cc(OC)c(O)c(OC)c6)[C@H]6C(=O)OC[C@H]56)OCO7)ccc2-4)[C@H]2COC(=O)[C@@H]2C3)cc(OC)c1O (stereo partly specified) > 100 µM

Value lookup for TGI; key = "CCOP(=O)(OCC)c1cc(-c2ccccc2)ccc1N" > 100 µM

###

test system: RPMI-8226 leukemia; assay: NCI tumour cell line growth inhibition, 48 h
Kind request: treat 10 µM as inclusive, so TGI at 10 µM or higher is satisfied, anything lower is not satisfied.

Field: example entries. Status: answers known.
compound	classification
CCCS(=O)(=O)c1nc(NC2CC2)cc(-c2ccc3c(ccn3C3CC(C)(C)NC(C)(C)C3)c2)n1	not satisfied
CC1(C)[C@@H]2C[C@H]1c1cnc(-c3ccccn3)cc1[C@H]2C(O)[C@@H]1c2cc(-c3ccccn3)ncc2[C@H]2C[C@@H]1C2(C)C (stereo not given in full)	not satisfied
Clc1cccc(C2ON=C(c3ccccc3)N2C23CC4CC(CC(C4)C2)C3)c1Cl (stereo not given)	satisfied
COc1ccc(C2C(C#N)=C(N)OC3=C2CCCc2ccc(F)cc23)cc1OC (stereo not given)	satisfied
CNC(=O)c1cn(C[C@H](F)CCc2ccc(NC(=O)Cc3cc(OC4CC(F)(F)C4)cc(C)n3)nn2)nn1	satisfied
COC(=O)c1cc(C(=O)OC)cc(-c2ccc3c(c2)-c2nc4c(c(-c5ccc(OC)cc5)c2CC3)CCc2ccc(-c3cc(C(=O)OC)cc(C(=O)OC)c3)cc2-4)c1	satisfied

Is TGI at least 10 µM? Consider "O=C(N/N=C/c1ccc(Cl)cc1Cl)c1ccccc1Nc1cccc(C(F)(F)F)c1" satisfied

Is TGI at least 10 µM? Consider "CCC1(CC)C(=O)NC(=S)N=C1N" satisfied

Is TGI at least 10 µM? Consider "COc1ccc2c(c1)[C@@]13CCN4CC5=CCO[C@H]6CC(=O)N2[C@H]1[C@H]6[C@H]5C[C@H]43" satisfied

Is TGI at least 10 µM? Consider "C=CC(=O)N1CCN(c2ncnc3c(F)c(-c4c(O)cccc4F)c(Cl)cc23)CC1" satisfied

Is TGI at least 10 µM? Consider "CCOC(=O)c1[nH]c2nc(SC)nc(NC)c2c1N" satisfied
